# procedure_text: Partition coefficient, log P of the compound at pH 7 by reversed-phase HPLC method
# Format: physicochemical
# stated_conditions: octanol/water
# Lookup of reported logP keyed by entry
Lab note: jot down the number only; don't add units.

O=C(Nc1ccc(OC(F)(F)F)cc1)Nc1ccccc1N1CC2(CCNCC2)c2ccccc21 | 4.3

Here is another molecule to look at.
Qu. Which logP value is on record for O=C(Nc1ccc(OC(F)(F)F)cc1)Nc1ccccc1N1CCOc2ccccc21 ?
Ans. 5.7

###

# assay_system: P2Y purinoceptor 2 (Homo sapiens, UniProt P41231)
# Sequence (P41231 whole entry): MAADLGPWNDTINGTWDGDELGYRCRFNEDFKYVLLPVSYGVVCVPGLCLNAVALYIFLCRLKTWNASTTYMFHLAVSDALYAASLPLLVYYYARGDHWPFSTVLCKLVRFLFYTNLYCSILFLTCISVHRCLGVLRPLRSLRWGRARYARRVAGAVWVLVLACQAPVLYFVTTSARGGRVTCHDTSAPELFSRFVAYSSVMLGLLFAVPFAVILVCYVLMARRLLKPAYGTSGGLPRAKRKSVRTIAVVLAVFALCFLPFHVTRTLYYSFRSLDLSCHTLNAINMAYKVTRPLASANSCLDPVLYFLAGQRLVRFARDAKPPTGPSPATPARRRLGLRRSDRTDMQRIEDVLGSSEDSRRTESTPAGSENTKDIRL
# procedure_text: Antagonist activity at P2Y2 receptor in human HeLa cells assessed as intracellular calcium mobilization after 10 mins by Fluo-4 AM staining-based FLIPR assay
pIC50: −log10 of the molar value.
measured_parameter: pIC50

Qu. Which pIC50 value is on record for CC(C)(C)CN1CCC2(CC1)CN(c1ccccc1NC(=O)Nc1ccc(OC(F)(F)F)cc1)c1ccccc12 ?
Ans. < 5.00
